{"givenSmiles": "CO[C@H]1C[C@@H]2CC[C@@H](C)[C@@](O)(O2)C(=O)C(=O)N2CCCC[C@H]2C(=O)O[C@H]([C@H](C)C[C@@H]2CC[C@@H](OC(=O)C[n+]3cccc(C)c3)[C@H](OC)C2)CC(=O)[C@H](C)/C=C(\\C)[C@@H](O)[C@@H](OC)C(=O)[C@H](C)C[C@H](C)/C=C/C=C/C=C/1C.[Br-]", "melting point": "138 to 140 °C"}
{"givenSmiles": "CO[C@H]1C[C@@H]2CC[C@@H](C)[C@@](O)(O2)C(=O)C(=O)N2CCCC[C@H]2C(=O)O[C@H]([C@H](C)C[C@@H]2CC[C@@H](OC(=O)C[n+]3cccc(O)c3)[C@H](OC)C2)CC(=O)[C@H](C)/C=C(\\C)[C@@H](O)[C@@H](OC)C(=O)[C@H](C)C[C@H](C)/C=C/C=C/C=C/1C.[Br-]", "melting point": "146 to 148 °C"}
{"givenSmiles": "CO[C@H]1C[C@@H]2CC[C@@H](C)[C@@](O)(O2)C(=O)C(=O)N2CCCC[C@H]2C(=O)O[C@H]([C@H](C)C[C@@H]2CC[C@@H](O)[C@H](OC)C2)CC(=O)[C@H](C)/C=C(\\C)[C@@H](OC(=O)C[n+]2ccccc2)[C@@H](OC)C(=O)[C@H](C)C[C@H](C)/C=C/C=C/C=C/1C.[Br-]", "melting point": "140 to 142 °C"}
{"givenSmiles": "CO[C@H]1C[C@@H]2CC[C@@H](C)[C@@](O)(O2)C(=O)C(=O)N2CCCC[C@H]2C(=O)O[C@H]([C@H](C)C[C@@H]2CC[C@@H](OC(=O)C[n+]3ccc(C)cc3)[C@H](OC)C2)CC(=O)[C@H](C)/C=C(\\C)[C@@H](O)[C@@H](OC)C(=O)[C@H](C)C[C@H](C)/C=C/C=C/C=C/1C.[Br-]", "melting point": "157 to 160 °C"}
{"givenSmiles": "CO[C@H]1C[C@@H]2CC[C@@H](C)[C@@](O)(O2)C(=O)C(=O)N2CCCC[C@H]2C(=O)O[C@H]([C@H](C)C[C@@H]2CC[C@@H](OC(=O)C[n+]3cccc(C)c3)[C@H](OC)C2)CC(=O)[C@H](C)/C=C(\\C)[C@@H](OC(=O)C[n+]2cccc(C)c2)[C@@H](OC)C(=O)[C@H](C)C[C@H](C)/C=C/C=C/C=C/1C.[Br-].[Br-]", "melting point": "159 to 162 °C"}
{"givenSmiles": "CO[C@H]1C[C@@H]2CC[C@@H](C)[C@@](O)(O2)C(=O)C(=O)N2CCCC[C@H]2C(=O)O[C@H]([C@H](C)C[C@@H]2CC[C@@H](OC(=O)C[n+]3ccccc3)[C@H](OC)C2)CC(=O)[C@H](C)/C=C(\\C)[C@@H](OC(=O)C[n+]2ccccc2)[C@@H](OC)C(=O)[C@H](C)C[C@H](C)/C=C/C=C/C=C/1C.[Br-].[Br-]", "melting point": "140 to 142 °C"}
